assay_target: Arginine Vasopressin Receptor 1A (AVPR1A) (Homo sapiens, UniProt P37288)
Sequence (P37288 whole entry): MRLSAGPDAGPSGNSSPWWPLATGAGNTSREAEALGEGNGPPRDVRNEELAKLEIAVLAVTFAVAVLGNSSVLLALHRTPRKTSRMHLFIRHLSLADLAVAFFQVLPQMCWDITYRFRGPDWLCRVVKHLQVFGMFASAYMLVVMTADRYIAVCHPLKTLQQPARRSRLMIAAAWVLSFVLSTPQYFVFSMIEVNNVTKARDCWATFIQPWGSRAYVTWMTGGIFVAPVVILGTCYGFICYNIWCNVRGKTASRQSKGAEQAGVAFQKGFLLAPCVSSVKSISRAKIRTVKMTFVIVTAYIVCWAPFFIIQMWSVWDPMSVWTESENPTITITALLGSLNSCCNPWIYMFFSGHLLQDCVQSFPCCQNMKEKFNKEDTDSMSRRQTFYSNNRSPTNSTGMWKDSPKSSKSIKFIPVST
experimental_protocol: Calcium flux secondary messenger assay, antagonist format
Type: cell-based
condition_notes: read-out: IC50 (μM) Antag./Blocker/Inhibitor
Where a name gives a salt, the structure may show the parent alone.
measurement_type: IC50

Ask | Provide measured IC50 value, entry: CN(C)CCc1ccn2ccccc12 [28-12 oxalate]
Reply | > 30 µM

* * *

assay_target: Adrenergic Receptor α1A (ADRA1A) (Homo sapiens, UniProt P35348)
Sequence (P35348 1-466): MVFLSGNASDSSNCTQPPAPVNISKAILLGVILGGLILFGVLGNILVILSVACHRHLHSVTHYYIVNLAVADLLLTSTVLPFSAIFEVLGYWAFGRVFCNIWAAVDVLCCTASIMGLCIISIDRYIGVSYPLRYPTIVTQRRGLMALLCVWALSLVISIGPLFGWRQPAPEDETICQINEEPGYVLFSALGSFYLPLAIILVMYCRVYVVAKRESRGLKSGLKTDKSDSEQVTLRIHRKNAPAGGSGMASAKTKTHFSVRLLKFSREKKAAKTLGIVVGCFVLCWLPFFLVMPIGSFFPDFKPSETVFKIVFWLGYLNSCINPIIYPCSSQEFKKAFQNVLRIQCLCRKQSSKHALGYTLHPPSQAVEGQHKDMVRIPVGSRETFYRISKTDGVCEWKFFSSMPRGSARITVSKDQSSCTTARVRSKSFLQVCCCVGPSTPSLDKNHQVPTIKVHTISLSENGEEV
experimental_protocol: Calcium flux secondary messenger assay, antagonist format
Assay type: cell-based
condition_notes: read-out: IC50 (μM) Antag./Blocker/Inhibitor
Counter-ions that a name gives are not always drawn.
measurement_type: IC50 (µM)
Give bare numbers, in µM.

Ask | Recall the reported IC50 of CN(C)CCc1ccn2ccccc12 [28-12 oxalate] on Adrenergic Receptor α1A (ADRA1A) (Homo sapiens, UniProt P35348) and write it down.
Reply | 2.31
